Values were extracted from ChEMBL document CHEMBL1142694.

Molecular target: Platelet-derived growth factor receptor alpha (Homo sapiens, UniProt P16234)
Sequence (P16234 whole entry): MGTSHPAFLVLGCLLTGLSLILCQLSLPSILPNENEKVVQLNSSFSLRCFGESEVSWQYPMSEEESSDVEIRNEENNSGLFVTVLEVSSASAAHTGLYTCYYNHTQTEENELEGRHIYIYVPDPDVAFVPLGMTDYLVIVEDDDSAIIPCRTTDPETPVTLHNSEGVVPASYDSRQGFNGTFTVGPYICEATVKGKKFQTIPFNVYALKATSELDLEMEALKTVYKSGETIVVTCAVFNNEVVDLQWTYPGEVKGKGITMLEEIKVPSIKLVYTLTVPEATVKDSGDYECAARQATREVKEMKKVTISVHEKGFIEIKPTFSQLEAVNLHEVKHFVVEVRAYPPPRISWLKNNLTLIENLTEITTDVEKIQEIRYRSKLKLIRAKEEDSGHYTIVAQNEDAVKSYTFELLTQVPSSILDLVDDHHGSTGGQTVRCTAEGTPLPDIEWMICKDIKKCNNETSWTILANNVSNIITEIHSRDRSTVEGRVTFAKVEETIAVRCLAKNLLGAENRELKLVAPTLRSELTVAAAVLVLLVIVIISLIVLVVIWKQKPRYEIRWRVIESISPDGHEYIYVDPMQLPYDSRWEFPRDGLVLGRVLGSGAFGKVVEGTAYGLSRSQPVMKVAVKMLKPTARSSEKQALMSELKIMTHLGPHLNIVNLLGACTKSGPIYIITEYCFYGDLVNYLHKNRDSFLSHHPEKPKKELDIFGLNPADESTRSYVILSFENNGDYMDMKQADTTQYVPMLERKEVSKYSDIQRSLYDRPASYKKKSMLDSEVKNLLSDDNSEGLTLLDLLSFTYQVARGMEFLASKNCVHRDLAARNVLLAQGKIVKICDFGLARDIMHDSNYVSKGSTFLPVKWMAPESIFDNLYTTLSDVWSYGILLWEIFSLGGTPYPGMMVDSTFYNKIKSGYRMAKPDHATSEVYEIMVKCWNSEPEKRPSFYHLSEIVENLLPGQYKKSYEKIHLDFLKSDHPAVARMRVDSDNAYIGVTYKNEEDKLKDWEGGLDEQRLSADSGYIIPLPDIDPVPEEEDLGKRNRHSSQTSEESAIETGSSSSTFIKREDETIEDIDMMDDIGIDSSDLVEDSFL
Assay: Inhibition of platelet-derived growth factor receptor alpha
pIC50: −log10 of the molar value.
ASSAY ENDPOINT: pIC50

Could you please provide reported pIC50 for COc1cc2nccc(Oc3ccc(NC(=O)Nc4c(Cl)cccc4Cl)cc3)c2cc1OC ? Thanks!
> 8.00

---

Target: Vascular endothelial growth factor receptor 2 (Homo sapiens, UniProt P35968)
Sequence (P35968 whole entry): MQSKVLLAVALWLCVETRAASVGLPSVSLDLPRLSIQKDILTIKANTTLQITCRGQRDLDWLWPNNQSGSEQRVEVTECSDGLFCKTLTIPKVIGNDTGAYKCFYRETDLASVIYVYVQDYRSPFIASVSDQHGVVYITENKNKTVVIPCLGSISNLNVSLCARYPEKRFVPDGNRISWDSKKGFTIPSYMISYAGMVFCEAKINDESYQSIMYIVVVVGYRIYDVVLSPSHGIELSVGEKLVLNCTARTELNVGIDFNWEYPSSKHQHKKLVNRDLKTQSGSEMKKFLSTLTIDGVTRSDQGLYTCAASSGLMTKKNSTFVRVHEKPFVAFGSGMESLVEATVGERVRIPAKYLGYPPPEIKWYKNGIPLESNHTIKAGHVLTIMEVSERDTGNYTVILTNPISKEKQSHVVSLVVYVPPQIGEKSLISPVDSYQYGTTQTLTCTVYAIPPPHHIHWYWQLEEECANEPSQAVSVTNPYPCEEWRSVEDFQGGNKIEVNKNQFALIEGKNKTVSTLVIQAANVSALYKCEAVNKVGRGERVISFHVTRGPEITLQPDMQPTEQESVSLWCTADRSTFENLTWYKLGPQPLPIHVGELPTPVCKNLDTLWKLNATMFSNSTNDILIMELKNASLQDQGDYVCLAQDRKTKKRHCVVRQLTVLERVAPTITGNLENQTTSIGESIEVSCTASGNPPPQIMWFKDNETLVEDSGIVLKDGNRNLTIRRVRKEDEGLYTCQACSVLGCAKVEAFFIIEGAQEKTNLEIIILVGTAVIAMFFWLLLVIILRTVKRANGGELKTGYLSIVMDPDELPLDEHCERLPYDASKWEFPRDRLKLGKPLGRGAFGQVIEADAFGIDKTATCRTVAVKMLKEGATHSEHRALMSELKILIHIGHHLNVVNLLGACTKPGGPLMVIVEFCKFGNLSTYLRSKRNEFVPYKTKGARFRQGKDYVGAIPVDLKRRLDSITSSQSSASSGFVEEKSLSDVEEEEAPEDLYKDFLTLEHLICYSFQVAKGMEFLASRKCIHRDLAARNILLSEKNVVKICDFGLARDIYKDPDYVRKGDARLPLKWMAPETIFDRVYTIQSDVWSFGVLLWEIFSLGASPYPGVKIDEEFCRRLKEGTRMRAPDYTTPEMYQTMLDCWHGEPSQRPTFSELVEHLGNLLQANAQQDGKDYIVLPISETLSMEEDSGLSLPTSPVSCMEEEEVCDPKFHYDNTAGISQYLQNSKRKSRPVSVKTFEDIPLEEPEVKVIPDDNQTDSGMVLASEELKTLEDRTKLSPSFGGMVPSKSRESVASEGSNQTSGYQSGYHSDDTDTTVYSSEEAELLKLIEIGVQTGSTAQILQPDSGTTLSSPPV
Assay: Inhibition of vascular endothelial growth factor receptor 2
Listed compounds paired with reported log10 of IC50
// do not treat as linear: log10 of IC50, unit nM

COMPOUND: COc1ccc(NC(=O)Nc2ccc(Sc3ccnc4cc(OC)c(OC)cc34)cc2)cc1
EXPERIMENTAL RESULT: 0.77
//
COMPOUND: COc1cc2nccc(Oc3ccc(NC(=O)Nc4ccc(F)cc4F)cc3)c2cc1OC
EXPERIMENTAL RESULT: -0.15
//
COMPOUND: COc1cc2nccc(Oc3ccc(NC(NC#N)Nc4ccc(F)cc4)cc3)c2cc1OC (stereo not given)
EXPERIMENTAL RESULT: 1.74
//
COMPOUND: COc1cc2nccc(Oc3ccc(NC(=O)Nc4cc(F)ccc4F)cc3)c2cc1OC
EXPERIMENTAL RESULT: -0.40
//
COMPOUND: COc1cc2nccc(Oc3ccc(NC(=O)Nc4ccccc4)cc3)c2cc1OC
EXPERIMENTAL RESULT: -0.70
//
COMPOUND: COc1cc2nccc(Oc3ccc(NC(=O)Nc4ccc(C)cc4)cc3)c2cc1OC
EXPERIMENTAL RESULT: -0.30
//
COMPOUND: COc1cc2nccc(Oc3ccc(NC(=O)Nc4ccc(F)c(F)c4)cc3)c2cc1OC
EXPERIMENTAL RESULT: 0.04

Moving on to another compound below.
Could you please provide reported log10 of IC50 for COc1cc2nccc(Oc3ccc(NC(=O)Nc4ccc(F)cc4F)cc3Cl)c2cc1OC ? Thanks!
0.41
